# credit: ChEMBL document CHEMBL3124926

test target: Glucocorticoid receptor (Homo sapiens) (UniProt P04150)
Sequence (P04150 whole entry): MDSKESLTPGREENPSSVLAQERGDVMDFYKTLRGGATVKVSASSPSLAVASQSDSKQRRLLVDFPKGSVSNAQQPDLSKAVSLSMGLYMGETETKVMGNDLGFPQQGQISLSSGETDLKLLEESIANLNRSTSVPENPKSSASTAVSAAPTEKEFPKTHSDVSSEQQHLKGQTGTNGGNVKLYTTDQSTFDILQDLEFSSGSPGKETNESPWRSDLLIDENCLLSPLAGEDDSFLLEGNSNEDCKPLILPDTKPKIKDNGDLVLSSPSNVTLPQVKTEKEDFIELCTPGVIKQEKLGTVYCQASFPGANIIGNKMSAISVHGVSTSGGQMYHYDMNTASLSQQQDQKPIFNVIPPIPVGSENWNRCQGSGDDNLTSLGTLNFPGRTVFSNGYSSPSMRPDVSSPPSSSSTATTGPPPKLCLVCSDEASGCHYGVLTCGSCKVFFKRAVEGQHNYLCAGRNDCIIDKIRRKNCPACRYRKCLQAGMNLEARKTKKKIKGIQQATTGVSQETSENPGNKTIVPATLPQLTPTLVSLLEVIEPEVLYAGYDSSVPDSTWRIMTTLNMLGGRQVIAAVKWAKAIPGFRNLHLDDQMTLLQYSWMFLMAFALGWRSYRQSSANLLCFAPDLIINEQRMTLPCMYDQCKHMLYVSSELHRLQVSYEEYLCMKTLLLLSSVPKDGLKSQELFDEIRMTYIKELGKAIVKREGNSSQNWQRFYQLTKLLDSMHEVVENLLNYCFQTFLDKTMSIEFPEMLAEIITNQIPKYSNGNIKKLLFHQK
assay explanation: Agonist activity at glucocorticoid receptor in human HeLa cells transfected with luciferase gene linked to MMTV promoter assessed as induction of luciferase transactivation activity at 2 uM after 6 hrs by luminescence assay
Type: cell-based
measure: Emax (%)

# example entries with known answers
>>> quantitative_result("Cc1ccc(F)cc1C(C)(C)CC(O)(Cc1cc2nnccc2[nH]1)C(F)(F)F (racemic)")
7
>>> quantitative_result("CC(C)(CC(O)(Cc1cc2ncncc2[nH]1)C(F)(F)F)c1cc(Cl)cc2c1OCC2 (racemic)")
12

P: Cc1ccc(F)cc1C(C)(C)C[C@@](O)(Cc1cc2ncncc2[nH]1)C(F)(F)F
Q: Cc1ccc(F)cc1C(C)(C)CC(O)(Cc1cc2nc(N3CCS(=O)(=O)CC3)ncc2[nH]1)C(F)(F)F (racemic)
Min Emax? P | Q Answer = label.
P
